Listed compounds paired with reported log10 EC50
Target: PPARα (Rattus norvegicus, UniProt P37230)
Construct: H4IIE rat hepatoma cell line was obtained from ATCC; host or cells: H4IIE rat hepatoma cells
Sequence (P37230 whole entry): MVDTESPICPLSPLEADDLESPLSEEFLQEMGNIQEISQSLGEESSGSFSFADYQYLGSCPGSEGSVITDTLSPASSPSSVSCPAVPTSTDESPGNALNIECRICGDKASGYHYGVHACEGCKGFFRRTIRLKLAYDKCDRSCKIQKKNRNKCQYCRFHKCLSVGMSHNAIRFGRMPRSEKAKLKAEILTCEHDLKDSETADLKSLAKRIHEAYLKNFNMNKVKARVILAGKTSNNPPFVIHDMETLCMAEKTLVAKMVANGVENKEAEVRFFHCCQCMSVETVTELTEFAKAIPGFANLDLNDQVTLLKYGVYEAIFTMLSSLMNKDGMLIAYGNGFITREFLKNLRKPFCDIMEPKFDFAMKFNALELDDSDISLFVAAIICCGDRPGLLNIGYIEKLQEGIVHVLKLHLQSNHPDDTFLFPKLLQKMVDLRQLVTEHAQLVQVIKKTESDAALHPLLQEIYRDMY
Experiment: HD bDNA Assay (HD gene induction)
Format: cell-based
Conditions: in section F; target not named there, values match the PPARα column; read-out: EC50
Field: value | Transform: log10 | Quantity: EC50 | Unit: nM

Recorded log10 EC50, per entry:
compound="CCN(C(=O)Nc1ccc(N(C)C)cc1)C1Cc2ccc(SC(C)(C)C(=O)O)cc2C1 (stereo not shown) [Example 7]" tested_target="PPARα (Rattus norvegicus, UniProt P37230)" measured_parameter="log10 EC50" readout_number=1.88
compound="CCN(C(=O)Nc1ccc(OC(F)(F)F)cc1)C1Cc2ccc(SC(C)(C)C(=O)O)cc2C1 (stereo not shown) [Example 2]" tested_target="PPARα (Rattus norvegicus, UniProt P37230)" measured_parameter="log10 EC50" readout_number=1.43
compound="CCCN(C(=O)Nc1ccc(OC(F)(F)F)cc1)C1Cc2ccc(SC(C)(C)C(=O)O)cc2C1 (stereo not shown) [Example 16]" tested_target="PPARα (Rattus norvegicus, UniProt P37230)" measured_parameter="log10 EC50" readout_number=2.20
compound="CCN(C(=O)Nc1ccc(OC(F)(F)F)cc1)C1CCc2cc(SC(C)(C)C(=O)O)c(Cl)cc2C1 (stereo not shown) [Example 51]" tested_target="PPARα (Rattus norvegicus, UniProt P37230)" measured_parameter="log10 EC50" readout_number=1.43
compound="CCCCCN(C(=O)Nc1ccc(SC(F)(F)F)cc1)C1Cc2ccc(SC(C)(C)C(=O)O)cc2C1 (stereo not shown) [Example 5]" tested_target="PPARα (Rattus norvegicus, UniProt P37230)" measured_parameter="log10 EC50" readout_number=1.72

// CCN(C(=O)Nc1ccc(OC(F)(F)F)cc1)C1CCc2cc(SC(C)(C)C(=O)O)c(C)cc2C1 (stereo not shown) [Example 53] : log10 EC50 value = 1.62

// CCN(C(=O)Nc1ccc(SC(F)(F)F)cc1)C1Cc2ccc(SC(C)(C)C(=O)O)cc2C1 (stereo not shown) [Example 4] : log10 EC50 value = 1.57

// CCN(C(=O)Nc1ccc(OC(F)(F)F)cc1)C1CCc2cc(SC(C)(C)C(=O)O)c(Br)cc2C1 (stereo not shown) [Example 52] : log10 EC50 value = 1.23

// CCCCCCN(C(=O)Nc1ccc(SC(F)(F)F)cc1)C1Cc2ccc(SC(C)(C)C(=O)O)cc2C1 (stereo not shown) [Example 15] : log10 EC50 value = 2.09

// CCCCCCN(C(=O)Nc1ccc(OC(F)(F)F)cc1)C1CCc2cc(SC(C)(C)C(=O)O)ccc2C1 (stereo not shown) [Example 24] : log10 EC50 value = 2.37

###

Molecular target: PPARα (Rattus norvegicus, UniProt P37230)
Construct: H4IIE rat hepatoma cell line was obtained from ATCC; host or cells: H4IIE rat hepatoma cells
Test: HD bDNA Assay (HD gene induction)
Assay type: cell-based
Conditions: H4IIE rat hepatoma cells, 24 hours; read-out: PPARα EC50
Listed compounds paired with reported pEC50
Would you please state pEC50, meaning minus log10 of the concentration in mol/L, as a bare number?

compound="CC(C)(Sc1ccc2c(c1)CC(N(CCCC(F)(F)F)C(=O)Nc1ccc(OC(F)(F)F)cc1)C2)C(=O)O (stereo not drawn)" readout_number=6.10
compound="CN(C)c1ccc(NC(=O)N(C)C2Cc3ccc(SC(C)(C)C(=O)O)cc3C2)cc1 (stereo not drawn)" readout_number=6.53

Now take the following compound into account.
// COCCN(C(=O)Nc1ccc(SC(F)(F)F)cc1)C1Cc2ccc(SC(C)(C)C(=O)O)cc2C1 (stereo not drawn) : pEC50 value = 6.18

###

Target: PPARα (Rattus norvegicus, UniProt P37230)
Construct: H4IIE rat hepatoma cell line was obtained from ATCC; host or cells: H4IIE rat hepatoma cells
Experiment: HD bDNA Assay (HD gene induction)
Format: cell-based
Settings: in section F; target not named there, values match the PPARα column; read-out: EC50
measured-parameter: pEC50
Would you please state pEC50, meaning minus log10 of the concentration in mol/L, as a bare number?

Recorded pEC50, per entry:
molecule="CCN(C(=O)Oc1ccc(C)cc1)C1CCc2cc(SC(C)(C)C(=O)O)c(Cl)cc2C1 (stereo not drawn)" readout_number=6.47
molecule="CC(C)CCN(C(=O)Nc1ccc(OC(F)(F)F)cc1)C1Cc2ccc(SC(C)(C)C(=O)O)cc2C1 (stereo not drawn)" readout_number=6.97

Now take the following molecule into account.
// CCCCCCN(C(=O)Nc1ccc(C(C)C)cc1)C1Cc2ccc(SC(C)(C)C(=O)O)cc2C1 (stereo not drawn) : pEC50 value = 6.74

###

Listed compounds paired with reported EC50
Target: PPARδ (Homo sapiens, UniProt Q03181)
Construct: a Gal4-Luciferase reporter is co-transfected
Sequence (Q03181 171-441 limits assumed): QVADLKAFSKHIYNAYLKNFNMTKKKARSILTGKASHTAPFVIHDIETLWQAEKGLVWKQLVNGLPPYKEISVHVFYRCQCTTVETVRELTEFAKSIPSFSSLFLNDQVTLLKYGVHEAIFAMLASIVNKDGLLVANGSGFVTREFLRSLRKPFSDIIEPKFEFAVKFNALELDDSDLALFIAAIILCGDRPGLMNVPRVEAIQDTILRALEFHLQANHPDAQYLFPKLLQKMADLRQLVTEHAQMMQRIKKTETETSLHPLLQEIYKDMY
Assay: Transfection Assay for PPARδ Receptors (PPAR-Gal4 / Gal4-Luciferase reporter in HEK293 cells)
Details: values in square brackets

Recorded EC50, per entry:
compound="CCN(C(=O)Nc1ccc(OC(F)(F)F)cc1)C1CCc2cc(SC(C)(C)C(=O)O)c(Cl)cc2C1 (stereo not drawn)" measured_parameter=EC50 result="> 10 µM"
compound="CCN(C(=O)Nc1ccc(OC(F)(F)F)cc1)C1CCc2cc(SC(C)(C)C(=O)O)c(F)cc2C1 (stereo not drawn)" measured_parameter=EC50 result="> 3 µM"
compound="CCN(C(=O)Oc1ccc(OC(F)(F)F)cc1)C1CCc2cc(SC(C)(C)C(=O)O)ccc2C1 (stereo not drawn)" measured_parameter=EC50 result="> 3 µM"
compound="CCN(C(=O)Nc1ccc(OC(F)(F)F)cc1)C1CCc2cc(SC(C)(C)C(=O)O)c(C)cc2C1 (stereo not drawn)" measured_parameter=EC50 result="0.873 µM"
compound="CCN(C(=O)Nc1ccc(OC(F)(F)F)cc1)C1CCc2cc(OC(C)(C)C(=O)O)ccc2C1 (stereo not drawn)" measured_parameter=EC50 result="> 3 µM"

Now take the following compound into account.
// CCN(C(=O)Nc1ccc(OC(F)(F)F)cc1)C1CCc2cc(SC(C)(C)C(=O)O)c(OC(F)(F)F)cc2C1 (stereo not drawn) : EC50 value = > 3 µM

###

Target: PPARδ (Homo sapiens, UniProt Q03181)
Construct: a Gal4-Luciferase reporter is co-transfected
Experiment: Transfection Assay for PPARδ Receptors (PPAR-Gal4 / Gal4-Luciferase reporter in HEK293 cells)
Format: cell-based
Conditions: fold induction; PPARδ standard: FI = 36.1
Listed compounds paired with reported PPARδ FI
Please give the numeric answer without any surrounding text.

compound="CCN(C(=O)Nc1ccc(OC(F)(F)F)cc1)C1Cc2ccc(SC(C)(C)C(=O)O)cc2C1 (stereo not drawn)" tested_target="PPARδ (Homo sapiens, UniProt Q03181)" readout_number=4.2
compound="CC(C)(Sc1ccc2c(c1)CC(N(CCCC1CCCC1)C(=O)Nc1ccc(OC(F)(F)F)cc1)C2)C(=O)O (stereo not drawn)" tested_target="PPARδ (Homo sapiens, UniProt Q03181)" readout_number=8.2

Now take the following compound into account.
// CCCCCCN(C(=O)Nc1ccc(SC(F)(F)F)cc1)C1Cc2ccc(SC(C)(C)C(=O)O)cc2C1 (stereo not drawn) : PPARδ FI value = 1.2

###

Listed compounds paired with reported EC50
Target: PPARα (Rattus norvegicus, UniProt P37230)
Construct: H4IIE rat hepatoma cell line was obtained from ATCC; host or cells: H4IIE rat hepatoma cells
Experiment: HD bDNA Assay (HD gene induction)
Type: cell-based
Details: in section F; target not named there, values match the PPARα column; read-out: EC50
Supply the numeric figure in nM, leaving out any unit text.

CCN(C(=O)Nc1ccc(OC(F)(F)F)cc1)C1CCc2cc(SC(C)(C)C(=O)O)c(OC)cc2C1 (stereo not drawn) tested on PPARα (Rattus norvegicus, UniProt P37230) gave EC50: 45

CCN(C(=O)Nc1ccc(OC(F)(F)F)cc1)C1CCc2cc(SC(C)(C)C(=O)O)c(F)cc2C1 (stereo not drawn) tested on PPARα (Rattus norvegicus, UniProt P37230) gave EC50: 10

CCCCN(C(=O)Nc1ccc(SC(F)(F)F)cc1)C1Cc2ccc(SC(C)(C)C(=O)O)cc2C1 (stereo not drawn) tested on PPARα (Rattus norvegicus, UniProt P37230) gave EC50: 160
